test system: BE2-M17 (Neuroblastoma); test: Bliss excess, mean over the matrix (fraction); higher = more synergy;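 note: after 72 h of two-drug dosing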
Below, each entry is listed with its recorded Bliss excess.
# print the numeric value only

Challenge: # Bliss excess lookup, item Cc1nc(Nc2ncc(C(=O)Nc3c(C)cccc3Cl)s2)cc(N2CCN(CCO)CC2)n1 [Dasatinib] + CC(=O)Nc1cccc(-n2c(=O)n(C3CC3)c(=O)c3c(Nc4ccc(I)cc4F)n(C)c(=O)c(C)c32)c1 [Trametinib] (first compound max 2 µM, 7x7, partner max 1 µM)
Response given: -0.0087

Challenge: And the next one, Cc1cc2ncnn2cc1Nc1ncc2c(n1)n(C1CCOCC1)c(=O)n2C [AZD7648] + C=CCn1c(=O)c2cnc(Nc3ccc(N4CCN(C)CC4)cc3)nc2n1-c1cccc(C(C)(C)O)n1 [AZD1775] (first compound max 10 µM, partner max 1 µM) ?
Response given: -0.0837

Challenge: And the next one, Cc1c2c(nn1C)CSCc1cc(n(C)n1)CSc1cc(c3ccccc3c1)OCCCc1c(C(=O)O)n(C)c3c-2c(Cl)ccc13 [AZD5991] + CC1(C)CCC(CN2CCN(c3ccc(C(=O)NS(=O)(=O)c4ccc(NCC5CCOCC5)c([N+](=O)[O-])c4)c(Oc4cnc5[nH]ccc5c4)c3)CC2)=C(c2ccc(Cl)cc2)C1 [Venetoclax] (first compound max 1 µM, 7x7, partner max 1 µM) ?
Response given: 0.0276

----------
system: EW-11 (Ewing's Sarcoma); assay: combination Emax (second highest fraction inhibited in the dose matrix, 72 h); higher = more inhibition; extreme values may be limits of the assay
Below, each entry is listed with its recorded combination Emax.
# print the numeric value only

In the examples that follow, each entry is paired with its recorded combination Emax.
CC1(C)CCC(CN2CCN(c3ccc(C(=O)NS(=O)(=O)c4ccc(NCC5CCOCC5)c([N+](=O)[O-])c4)c(Oc4cnc5[nH]ccc5c4)c3)CC2)=C(c2ccc(Cl)cc2)C1 [Venetoclax] + C1CN(CCC1(C(=O)N[C@@H](CCO)C2=CC=C(C=C2)Cl)N)C3=NC=NC4=C3C=CN4 [Capivasertib] (first compound max 1 µM, 7x7, partner max 3 µM) : 0.711
CC1(C)CCC(CN2CCN(c3ccc(C(=O)NS(=O)(=O)c4ccc(NCC5CCOCC5)c([N+](=O)[O-])c4)c(Oc4cnc5[nH]ccc5c4)c3)CC2)=C(c2ccc(Cl)cc2)C1 [Venetoclax] + C=CCn1c(=O)c2cnc(Nc3ccc(N4CCN(C)CC4)cc3)nc2n1-c1cccc(C(C)(C)O)n1 [AZD1775] (first compound max 1 µM, partner max 1 µM) : 0.715

We next turn to a different compound, shown below.
Challenge: # combination Emax lookup, item CCN(CCO)CCCOc1ccc2c(Nc3cc(CC(=O)Nc4cccc(F)c4)[nH]n3)ncnc2c1 [AZD2811] + C[C@@H]1COCCN1C2=NC(=NC(=C2)C3(CC3)[S@](=N)(=O)C)C4=C5C=CNC5=NC=C4 [AZD6738] (first compound max 1 µM, 7x7, partner max 10 µM)
Response given: 0.686

----------
Below, each entry is listed with its recorded combination Emax.
test system: OE21 (Esophageal Squamous Cell Carcinoma); test: combination Emax (second highest fraction inhibited in the dose matrix, 72 h); higher = more inhibition; extreme values may be limits of the assay
# print the numeric value only

In the examples that follow, each entry is paired with its recorded combination Emax.
Cc1c2c(nn1C)CSCc1cc(n(C)n1)CSc1cc(c3ccccc3c1)OCCCc1c(C(=O)O)n(C)c3c-2c(Cl)ccc13 [AZD5991] + C=CCn1c(=O)c2cnc(Nc3ccc(N4CCN(C)CC4)cc3)nc2n1-c1cccc(C(C)(C)O)n1 [AZD1775] (first compound max 1 µM, partner max 1 µM) : 0.719
CCN(CCO)CCCOc1ccc2c(Nc3cc(CC(=O)Nc4cccc(F)c4)[nH]n3)ncnc2c1 [AZD2811] + O=C(c1cc(Cc2n[nH]c(=O)c3ccccc23)ccc1F)N1CCN(C(=O)C2CC2)CC1 [Olaparib] (first compound max 1 µM, 7x7, partner max 10 µM) : 0.255
CCc1c2c(nc3ccc(O)cc13)-c1cc3c(c(=O)n1C2)COC(=O)[C@]3(O)CC [SN-38] + O=C(c1cc(Cc2n[nH]c(=O)c3ccccc23)ccc1F)N1CCN(C(=O)C2CC2)CC1 [Olaparib] (first compound max 0.3 µM, 7x7, partner max 10 µM) : 0.669
Cn1cnc2c(F)c(Nc3ccc(Br)cc3Cl)c(C(=O)NOCCO)cc21 [Selumetinib] + C[C@@H]1COCCN1C2=NC(=NC(=C2)C3(CC3)[S@](=N)(=O)C)C4=C5C=CNC5=NC=C4 [AZD6738] (first compound max 10 µM, 7x7, partner max 10 µM) : 0.837

Challenge: # combination Emax lookup, item CCc1c2c(nc3ccc(O)cc13)-c1cc3c(c(=O)n1C2)COC(=O)[C@]3(O)CC [SN-38] + CN(C)CCCOc1ccc(-c2ccc3ncc4c(c3c2)n(C2CCOCC2)c(=O)n4C)cn1 [AZD0156] (first compound max 0.3 µM, 7x7, partner max 1 µM)
Response given: 0.678

Challenge: And the next one, CC1(C)CCC(CN2CCN(c3ccc(C(=O)NS(=O)(=O)c4ccc(NCC5CCOCC5)c([N+](=O)[O-])c4)c(Oc4cnc5[nH]ccc5c4)c3)CC2)=C(c2ccc(Cl)cc2)C1 [Venetoclax] + Cc1cc2ncnn2cc1Nc1ncc2c(n1)n(C1CCOCC1)c(=O)n2C [AZD7648] (first compound max 1 µM, 7x7, partner max 10 µM) ?
Response given: 0.206

Challenge: And the next one, COc1nnc2ccc(N3CCC(c4ccc(OCCN5CCN(C)C(=O)[C@H]5C)cc4)CC3)nn12 [AZD5153] + Cc1c2c(nn1C)CSCc1cc(n(C)n1)CSc1cc(c3ccccc3c1)OCCCc1c(C(=O)O)n(C)c3c-2c(Cl)ccc13 [AZD5991] (first compound max 1 µM, 7x7, partner max 1 µM) ?
Response given: 0.83
